Target: IRAK4 protein in THP-1 cells (Homo sapiens, UniProt Q9NWZ3)
Construct: endogenous in cells; host or cells: THP-1
Sequence (Q9NWZ3 1-460): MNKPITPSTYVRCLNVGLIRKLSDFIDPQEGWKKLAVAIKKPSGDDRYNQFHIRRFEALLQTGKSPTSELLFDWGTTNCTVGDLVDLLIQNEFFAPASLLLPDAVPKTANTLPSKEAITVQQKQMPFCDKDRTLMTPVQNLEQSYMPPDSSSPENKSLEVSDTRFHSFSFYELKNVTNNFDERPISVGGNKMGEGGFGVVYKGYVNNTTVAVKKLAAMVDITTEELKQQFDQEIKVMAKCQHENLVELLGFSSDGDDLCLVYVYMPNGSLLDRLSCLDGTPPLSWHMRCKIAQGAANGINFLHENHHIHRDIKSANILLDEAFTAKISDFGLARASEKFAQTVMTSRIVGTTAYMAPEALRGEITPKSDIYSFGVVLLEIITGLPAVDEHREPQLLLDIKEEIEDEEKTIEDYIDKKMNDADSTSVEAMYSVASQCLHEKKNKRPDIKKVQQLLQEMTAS
Assay: Degradation of IRAK4 in THP-1 cells (Western blot)
Type: cell-based
Details: 24 hours, compound 1-3000 nM
Decision: DC50 beneath 6 nM gives 1; DC50 meeting or exceeding 6 nM gives -1.

Solved cases below.
[[record]]
molecule = "CN(CC1CCN(c2cccc3c2C(=O)N(C2CCC(=O)NC2=O)C3=O)CC1)C[C@H]1CC[C@H](n2cc3cc(NC(=O)c4cccc(C(F)(F)F)n4)c(C(C)(C)O)cc3n2)CC1 (stereo partly shown) [Control group 3, reference compound]"
category_label = -1

[[record]]
molecule = "CC(C)(O)c1cc2nn(C3CCN(CCC4CCC5(CC4)CCN(C(=O)c4ccc(F)c(C6CCC(=O)NC6=O)c4)CC5)CC3)cc2cc1NC(=O)c1cccc(C(F)(F)F)n1 (stereo not shown)"
category_label = 1

[[record]]
molecule = "COc1cc2nn([C@H]3CC[C@H](CN4CCC5(CC4)CCN(C(=O)c4ccc(Cl)c(N6CCC(=O)NC6=O)c4)CC5)CC3)cc2cc1NC(=O)c1cccc(C(F)(F)F)n1"
category_label = 1


Request: Please check: DC50 for `COc1cc2nn(C3CCN(CCCN4CCC5(CC4)CCN(C(=O)c4ccc(OC)c(N6CCC(=O)NC6=O)c4)CC5)CC3)cc2cc1NC(=O)c1cccc(C(F)(F)F)n1` , strictly under 6 nM or not?
Response: -1

Request: A record lists `CC(C)(O)c1cc2nn(C3CCN(CCN4CCC5(CC4)CCN(C(=O)c4ccc(Cl)c(N6CCC(=O)NC6=O)c4)CC5)CC3)cc2cc1NC(=O)c1cccc(C(F)(F)F)n1` . Is its DC50 below 6 nM?
Response: 1
